Reported GI50 values are given for each entry in this list.
# System: VCaP cells
# protocolDetails: Cellular growth inhibition assay for VCaP cells
# Format: cell-based
# statedConditions: Homo sapiens, 72 hours, CellTiter-Glo 2.0
measurementLabel: GI50

- compound: "CCc1cnn2c(NCc3ccc(OCCCN4CCN(CC5CCN(c6cnc(C(=O)N[C@H]7C(C)(C)[C@H](Oc8ccc(C#N)c(Cl)c8)C7(C)C)nc6)CC5)CC4)nc3)cc(N3CCCC[C@@H]3CCO)nc12"
  recordedValue: "0.1 to 1 µM"
- compound: "CCc1cnn2c(NCc3ccc(OCCN4CCN(CC5CCN(c6ncc(C(=O)N[C@H]7C(C)(C)[C@H](Oc8ccc(C#N)c(Cl)c8)C7(C)C)cn6)CC5)CC4)nc3)cc(N3CCCCC3)nc12"
  recordedValue: "> 3.5 µM"
- compound: "CCc1cnn2c(NCc3ccc(N4CCC(CN5CCC6CN(c7ncc(C(=O)N[C@H]8C(C)(C)[C@H](Oc9ccc(C#N)c(Cl)c9)C8(C)C)cn7)CCC6C5)CC4)nc3)cc(N3CCCC[C@H]3CCO)nc12 (stereo partly drawn)"
  recordedValue: "1 to 3.5 µM"
- compound: "Cc1ncc(-c2nc(Nc3ccc(C(=O)N4CC[C@H](N(C)CCOCCOCCOC5CCN(c6ncc(C(=O)N[C@H]7C(C)(C)[C@H](Oc8ccc(C#N)c(Cl)c8)C7(C)C)cn6)CC5)C4)cc3)ncc2F)n1C(C)C"
  recordedValue: "1 to 3.5 µM"
- compound: "CCc1cnn2c(NCc3ccc(OCCCN4CCN(CC5CCN(c6ncc(C(=O)N[C@H]7C(C)(C)[C@H](Oc8ccc(C#N)c(Cl)c8)C7(C)C)cn6)CC5)CC4)nc3)cc(N3CCCCC3)nc12"
  recordedValue: "> 3.5 µM"
- compound: "CCc1cnn2c(NCc3ccc(OCCCN4CCN(C5CN(c6ncc(C(=O)N[C@H]7C(C)(C)[C@H](Oc8ccc(C#N)c(Cl)c8)C7(C)C)cn6)C5)CC4)nc3)cc(N3CCCC[C@H]3CCO)nc12"
  recordedValue: "< 0.1 µM"
- compound: "CCc1cnn2c(NCc3ccc(OCCCOCCCOC4CCN(c5ncc(C(=O)N[C@H]6C(C)(C)[C@H](Oc7ccc(C#N)c(Cl)c7)C6(C)C)cn5)CC4)nc3)cc(N3CCCC[C@H]3CCO)nc12"
  recordedValue: "0.1 to 1 µM"
- compound: "CCc1cnn2c(NCc3ccc(OCCOCCN4CC5CN(c6ncc(C(=O)N[C@H]7C(C)(C)[C@H](Oc8ccc(C#N)c(Cl)c8)C7(C)C)cn6)CC5C4)nc3)cc(N3CCCC[C@H]3CCO)nc12 (stereo partly drawn)"
  recordedValue: "0.1 to 1 µM"
- compound: "CCc1cnn2c(NCc3ccc(OCCOCCOCCOCCOCCN(C)c4ncc(C(=O)N[C@H]5C(C)(C)[C@H](Oc6ccc(C#N)c(Cl)c6)C5(C)C)cn4)nc3)cc(N3CCCC[C@H]3CCO)nc12"
  recordedValue: "< 0.1 µM"
- compound: "CC1(C)[C@H](NC(=O)c2cnc(N3CCC(OCCOCCOCCN4C/C=C/CCOc5cccc(c5)-c5ccnc(n5)Nc5cccc(c5)C4)CC3)nc2)C(C)(C)[C@H]1Oc1ccc(C#N)c(Cl)c1"
  recordedValue: "> 3.5 µM"
- compound: "COc1cc(F)ccc1-c1ccnc2[nH]c(C3CCN(CCOCCOC4CCN(c5ncc(C(=O)N[C@H]6C(C)(C)[C@H](Oc7ccc(C#N)c(Cl)c7)C6(C)C)cn5)CC4)CC3)cc12"
  recordedValue: "0.1 to 1 µM"
- compound: "CCc1cnn2c(NCc3ccc(OCCN4CCN(CC5CCN(c6ncc(C(=O)N[C@H]7C(C)(C)[C@H](Oc8ccc(C#N)c(Cl)c8)C7(C)C)cn6)CC5)CC4)nc3)cc(N3CCCC[C@H]3CCO)nc12"
  recordedValue: "< 0.1 µM"
- compound: "CC(C)n1cc(-c2ccnc3[nH]c(C4CCN(CCOCCOC5CCN(c6ncc(C(=O)N[C@H]7C(C)(C)[C@H](Oc8ccc(C#N)c(Cl)c8)C7(C)C)cn6)CC5)CC4)cc23)ccc1=O"
  recordedValue: "< 0.1 µM"
- compound: "Cc1ncc(-c2nc(Nc3ccc(C(=O)N4CC[C@H](N(C)CCOCCOCCOCCOCCOC5CCN(c6ncc(C(=O)N[C@H]7C(C)(C)[C@H](Oc8ccc(C#N)c(Cl)c8)C7(C)C)cn6)CC5)C4)cc3)ncc2F)n1C(C)C"
  recordedValue: "1 to 3.5 µM"
- compound: "CCc1cnn2c(NCc3ccc(OCCCN4CCN(CCCOC5CCN(c6ncc(C(=O)N[C@H]7C(C)(C)[C@H](Oc8ccc(C#N)c(Cl)c8)C7(C)C)cn6)CC5)CC4)nc3)cc(N3CCCC[C@H]3CCO)nc12"
  recordedValue: "< 0.1 µM"
- compound: "COc1cc(F)ccc1-c1ccnc2[nH]c(C3CCN(CCOCCOCCOCCOC4CCN(c5ncc(C(=O)N[C@H]6C(C)(C)[C@H](Oc7ccc(C#N)c(Cl)c7)C6(C)C)cn5)CC4)CC3)cc12"
  recordedValue: "0.1 to 1 µM"
- compound: "CCc1cnn2c(NCc3ccc(OCCOCCOCCOCCOCCOC4CCN(c5ncc(C(=O)N[C@H]6C(C)(C)[C@H](Oc7ccc(C#N)c(Cl)c7)C6(C)C)cn5)CC4)nc3)cc(N3CCCC[C@H]3CCO)nc12"
  recordedValue: "< 0.1 µM"
- compound: "CCc1cnn2c(NCc3ccc(N4CC(N5CCN(C6CCN(c7ncc(C(=O)N[C@H]8C(C)(C)[C@H](Oc9ccc(C#N)c(Cl)c9)C8(C)C)cn7)CC6)CC5)C4)nc3)cc(N3CCCC[C@H]3CCO)nc12"
  recordedValue: "< 0.1 µM"

====

# systemTested: CDK9 (Homo sapiens, UniProt P50750)
# Construct: made in house; host or cells: E. coli BL21-derived host (T7 phage) or HEK-293 ('BEK-293' [sic])
# Sequence (P50750 whole entry): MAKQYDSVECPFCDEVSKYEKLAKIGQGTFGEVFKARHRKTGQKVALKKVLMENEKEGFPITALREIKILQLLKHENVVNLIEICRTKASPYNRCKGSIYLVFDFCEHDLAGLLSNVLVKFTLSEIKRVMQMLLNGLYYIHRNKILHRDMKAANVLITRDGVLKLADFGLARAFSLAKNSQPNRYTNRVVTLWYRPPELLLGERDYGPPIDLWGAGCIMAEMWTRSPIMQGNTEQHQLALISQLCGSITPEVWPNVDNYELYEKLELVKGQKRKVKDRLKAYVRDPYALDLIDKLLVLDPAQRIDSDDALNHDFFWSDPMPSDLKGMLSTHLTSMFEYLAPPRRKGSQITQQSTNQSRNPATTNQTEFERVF
# protocolDetails: KdELECT binding assay, CDK9
# statedConditions: CDK9, Table 7
# Method: Compounds were tested using a KdELECT. Kinase-tagged T7 phage strains were prepared in an E. coli host derived from the BL21 strain. E. coli were grown to log-phase and infected with T7 phage and incubated with shaking at 32° C. until lysis. The lysates were centrifuged and filtered to remove cell debris. The remaining kinases were produced in BEK-293 cells and subsequently tagged with DNA for qPCR detection. […] The kinase concentration in the eluates was measured by qPCR.

- smilesEntry: "COc1cc(F)ccc1-c1ccnc2[nH]c(C3CCN(CCOCCOCCOCCOC4CCN(c5ncc(C(=O)N[C@H]6C(C)(C)[C@H](Oc7ccc(C#N)c(Cl)c7)C6(C)C)cn5)CC4)CC3)cc12"
  Kd: "0.05 to 0.5 µM"
- smilesEntry: "Cc1ncc(-c2nc(Nc3ccc(C(=O)N4CC[C@H](N(C)CCOCCOCCOC5CCN(c6ncc(C(=O)N[C@H]7C(C)(C)[C@H](Oc8ccc(C#N)c(Cl)c8)C7(C)C)cn6)CC5)C4)cc3)ncc2F)n1C(C)C"
  Kd: "0.05 to 0.5 µM"
- smilesEntry: "CN(CCCN1CCN(CCCNS(=O)(=O)c2ccc(Nc3ncc(Br)c(Nc4cccc(F)c4C(N)=O)n3)cc2)CC1)c1ncc(C(=O)N[C@H]2C(C)(C)[C@H](Oc3ccc(C#N)c(Cl)c3)C2(C)C)cn1"
  Kd: "0.5 to 2.5 µM"
- smilesEntry: "CCc1cnn2c(NCc3ccc(OCCOC4CCN(c5ncc(C(=O)N[C@H]6C(C)(C)[C@H](Oc7ccc(C#N)c(Cl)c7)C6(C)C)cn5)CC4)nc3)cc(N3CCCC[C@H]3CCO)nc12"
  Kd: "0.5 to 2.5 µM"
- smilesEntry: "Cc1ncc(-c2nc(Nc3ccc(C(=O)N4CC[C@H](N(C)CCOC5CCN(c6ncc(C(=O)N[C@H]7C(C)(C)[C@H](Oc8ccc(C#N)c(Cl)c8)C7(C)C)cn6)CC5)C4)cc3)ncc2F)n1C(C)C"
  Kd: "0.05 to 0.5 µM"

====

# systemTested: androgen receptor (Homo sapiens, UniProt P10275)
# Construct: endogenous in cells
# Sequence (P10275 whole entry): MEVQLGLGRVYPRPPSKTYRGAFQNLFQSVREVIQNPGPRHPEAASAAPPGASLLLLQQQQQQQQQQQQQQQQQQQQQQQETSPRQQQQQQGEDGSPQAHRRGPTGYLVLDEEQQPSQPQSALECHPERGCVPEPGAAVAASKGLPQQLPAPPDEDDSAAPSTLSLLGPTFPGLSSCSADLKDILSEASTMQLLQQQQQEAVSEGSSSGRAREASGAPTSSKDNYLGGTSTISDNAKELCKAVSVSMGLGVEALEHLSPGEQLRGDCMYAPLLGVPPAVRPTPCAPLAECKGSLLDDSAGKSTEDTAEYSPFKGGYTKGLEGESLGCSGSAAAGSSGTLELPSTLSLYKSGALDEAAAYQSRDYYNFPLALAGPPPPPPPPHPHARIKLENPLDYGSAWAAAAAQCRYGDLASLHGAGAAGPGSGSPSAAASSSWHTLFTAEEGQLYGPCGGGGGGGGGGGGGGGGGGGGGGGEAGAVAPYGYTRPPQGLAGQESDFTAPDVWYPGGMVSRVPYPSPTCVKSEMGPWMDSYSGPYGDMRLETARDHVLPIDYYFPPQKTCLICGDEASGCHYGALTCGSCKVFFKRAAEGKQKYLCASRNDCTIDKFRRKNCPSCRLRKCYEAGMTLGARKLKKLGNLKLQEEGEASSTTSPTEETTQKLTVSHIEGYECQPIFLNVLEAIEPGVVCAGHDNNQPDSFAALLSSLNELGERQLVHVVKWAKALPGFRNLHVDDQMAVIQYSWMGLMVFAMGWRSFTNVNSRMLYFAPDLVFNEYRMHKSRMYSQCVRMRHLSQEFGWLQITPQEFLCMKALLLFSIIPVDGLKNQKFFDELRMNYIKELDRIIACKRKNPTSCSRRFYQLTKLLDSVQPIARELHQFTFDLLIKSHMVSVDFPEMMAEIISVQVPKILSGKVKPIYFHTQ
# protocolDetails: Binding affinity to androgen receptor ([3H]methyltrienolone radioligand, cell cytosol)
# statedConditions: Table 6

- smilesEntry: "CCc1cnn2c(NCc3ccc(OCCCN4CCC(C5CN(c6ncc(C(=O)N[C@H]7C(C)(C)[C@H](Oc8ccc(C#N)c(Cl)c8)C7(C)C)cn6)C5)CC4)nc3)cc(N3CCCC[C@H]3CCO)nc12"
  Kd: "< 50 nM"
- smilesEntry: "CCc1cnn2c(NCc3ccc(OCCCN4CCN(C5CN(c6ncc(C(=O)N[C@H]7C(C)(C)[C@H](Oc8ccc(C#N)c(Cl)c8)C7(C)C)cn6)C5)CC4)nc3)cc(N3CCCC[C@H]3CCO)nc12"
  Kd: "< 50 nM"
- smilesEntry: "CCc1cnn2c(NCc3ccc(OCCCCN4CCN(CC5CCN(c6ncc(C(=O)N[C@H]7C(C)(C)[C@H](Oc8ccc(C#N)c(Cl)c8)C7(C)C)cn6)CC5)CC4)nc3)cc(N3CCCC[C@H]3CCO)nc12"
  Kd: "< 50 nM"
- smilesEntry: "CCc1cnn2c(NCc3ccc(OCCOC4CCN(c5ncc(C(=O)N[C@H]6C(C)(C)[C@H](Oc7ccc(C#N)c(Cl)c7)C6(C)C)cn5)CC4)nc3)cc(N3CCCC[C@H]3CCO)nc12"
  Kd: "< 50 nM"
- smilesEntry: "CCc1cnn2c(NCc3ccc(OCCCN4CCN(CC5CCN(c6cnc(C(=O)N[C@H]7C(C)(C)[C@H](Oc8ccc(C#N)c(Cl)c8)C7(C)C)nc6)CC5)CC4)nc3)cc(N3CCCC[C@@H]3CCO)nc12"
  Kd: "500 to 2500 nM"
